Biological target: canine CD3 on canine T cells (canine PBMC) (canine, UniProt P27597 22-202)
Sequence (P27597 22-202 limits assumed, chain 1 of 3): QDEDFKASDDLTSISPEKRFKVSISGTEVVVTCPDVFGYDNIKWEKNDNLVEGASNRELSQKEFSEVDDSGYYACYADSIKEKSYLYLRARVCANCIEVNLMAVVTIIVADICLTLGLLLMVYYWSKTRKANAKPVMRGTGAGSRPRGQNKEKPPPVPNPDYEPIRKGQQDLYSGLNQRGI
Sequence (chain, as listed by the source limits assumed, chain 2 of 3): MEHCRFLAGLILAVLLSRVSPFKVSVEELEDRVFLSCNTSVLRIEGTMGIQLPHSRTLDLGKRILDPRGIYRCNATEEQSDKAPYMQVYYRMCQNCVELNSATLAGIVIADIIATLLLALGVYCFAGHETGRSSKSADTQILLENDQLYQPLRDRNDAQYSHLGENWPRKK
Sequence (chain, as listed by the source limits assumed, chain 3 of 3): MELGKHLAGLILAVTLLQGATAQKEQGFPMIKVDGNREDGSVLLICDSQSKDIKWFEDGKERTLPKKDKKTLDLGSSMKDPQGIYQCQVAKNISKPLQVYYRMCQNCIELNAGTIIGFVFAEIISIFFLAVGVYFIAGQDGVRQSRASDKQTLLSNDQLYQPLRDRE
Assay: cell-based or functional assay
endpoint: CD25 Activation, Day 6, IS

These recorded examples may help you get a feel for the data.
[
  {
    "binder": "PMX178 (monospecific anti-canine CD3, canine IgG-B effector function deficient Fc) (antibody, V domains shown) VH: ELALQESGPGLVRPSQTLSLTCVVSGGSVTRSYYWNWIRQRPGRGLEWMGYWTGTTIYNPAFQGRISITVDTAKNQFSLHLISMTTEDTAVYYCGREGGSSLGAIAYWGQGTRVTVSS VL: SYVLTQLPSKNVTLKQPAHITCGGDNIGRKSVHWYQQKLGQAPVLIIYYDSSRPTGIPERFSGANSGNTATLTISGALAEDEADYYCQVWDSSAKAAVFGGGTHLTVL",
    "result": 9.79
  },
  {
    "binder": "PMX177 (monospecific anti-canine CD3, canine IgG-B effector function deficient Fc) (antibody, V domains shown) VH: EVTLQESGPGLVKPSQTLSLTCVVSGGSVTSSFYWNWIRQRPGRGLEWMGYWTGSTNYNPAFQGRISITADTAKNQFSLHLGSMTTDDTAMYYCAREEGSWGRVYFDYWGQGTLVTVSS VL: SYVLTQLPSKNVTLKQPAHITCGGDNIGSKSVHWYQQKLGQAPVLIIYYDSSRPTGIPERFSGANSGNTATLTISGALAEDEADYYCQVWDSSTKTWVFGEGTQLTVL",
    "result": 8.02
  },
  {
    "binder": "PMX191 (monospecific anti-canine CD3, canine IgG-B effector function deficient Fc) (antibody, V domains shown) VH: EVQLVESGGDLVKPAGSLRLSCVASGFTFSDYSMSWVRQGPEKGLQLVAGMNSDGSTTYYTDAVRGRFTISRDNAKNTMYLQMNSLRDEDTAIYYCAKGAAAPDYWGQGTLVTVSS VL: SYELTQPPSVNVTLRETAHITCGGDRIGSKYVQWIQQIPGQAPVVIIYKDNNRPTGIPERFSGANSGNTATLTISGALAEDEADYYCQVGDNYTWVFGEGTQLTVL",
    "result": 8.97
  }
]

Data request: Answer with reported CD25 Activation, Day 6, IS of PMX195 (monospecific anti-canine CD3, canine IgG-B effector function deficient Fc) (antibody, V domains shown) VH: EVQLVESGGDLVKPAGSLRLSCMASGFTFSSYSMSWVRQAPEKGLQLVAGINGDGSTTYYTDAVKGRFTISRDNAKNTVYLQMNNLRVEDSAMYYCAKGAGTGDYWGQGTLVTVSS VL: SYELTQPPSLNVTLRETAHITCGGDRIGSRYVQWIQQNPGQAPVVVIYKDSNRPTGIPERFSGANSGNTATLTISGALAEDEADYYCQVGDSGNWVFGGGTQLTVL
Data returned: 10.4

Data request: Answer with reported CD25 Activation, Day 6, IS of PMX179 (monospecific anti-canine CD3, canine IgG-B effector function deficient Fc) (antibody, V domains shown) VH: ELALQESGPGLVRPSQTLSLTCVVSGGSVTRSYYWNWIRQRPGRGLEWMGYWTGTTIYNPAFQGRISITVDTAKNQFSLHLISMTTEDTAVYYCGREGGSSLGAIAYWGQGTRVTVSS VL: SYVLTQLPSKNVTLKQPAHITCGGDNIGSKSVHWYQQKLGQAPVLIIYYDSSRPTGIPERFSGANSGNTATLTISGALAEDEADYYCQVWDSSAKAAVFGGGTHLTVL
Data returned: 8.73
